# Test system: HLA A2402 (human)
# Assay info: 125I-probe competition, purified HLA
Hi there, I'd appreciate the recorded pIC50 for every entry that follows.
One number for each entry, as −log10 of the molar value.

Consider the following illustrative entries.
>>> value("VYVFCFLLPM (modifications not checked) [HPV18.E5.52]")
6.75
>>> value("LYGVSFSEL (modifications not checked) [HPV16.E1.214]")
8.51

List pIC50 for every entry below, keeping the order given.
1. VYQFAFKDL (modifications not checked) [HPV45.E6.44]
2. YYMTDAGTW (modifications not checked) [HPV18.E2.142]

[8.40, 8.49]
